mean fluorescence intensity values by entry
# Test Target: T1, Claudin18.2 on cells (human, UniProt P56856-2 1-261)
# T1 construct: whole, on cells; the cell line of each result is named under assay or readout
# Experimental Details: flow cytometry on NUGC4 cells, antibody at 0.75 µg/mL
A bare number is all that is needed in reply.

Take a look at these entries with their results.
binder="IMAB362 (antibody, human IgG1, kappa, V domains shown) VH: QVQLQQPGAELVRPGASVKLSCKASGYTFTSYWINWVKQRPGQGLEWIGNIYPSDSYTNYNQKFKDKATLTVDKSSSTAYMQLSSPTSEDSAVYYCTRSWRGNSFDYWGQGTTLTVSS VL: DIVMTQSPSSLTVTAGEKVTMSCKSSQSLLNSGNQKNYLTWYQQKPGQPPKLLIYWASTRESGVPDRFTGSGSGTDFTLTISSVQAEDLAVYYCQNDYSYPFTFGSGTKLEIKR" readout_value=69600
binder="CLD389-CA802-IgG1 (antibody, V domains shown, Complete IgG1 made in HEK293 cells) VH: QVQLVESGGGVVQPGRSLRLSCAASGFTFSSYAMHWVRQVPGKGLEWVAIISYDGSIKYYADSVKGQFTISRDNSKNTLSLQMNSLRPEDTAVYYCARDPTMVRGVRGMDVWGQGTTVTVSS VL: DIQMTQSPSSLSASVGDRVTITCRASQGIRNDLGWYQQKPGKAPKLLIYAASSLQSGVPSRFSGSGSGTDFTLTISSLQPEDFATYYCLQDYNYPLTFGGGTKLEIKR" readout_value=24400

Q: What does the data say about its mean fluorescence intensity? Entry: CLD389-279-IgG1 (antibody, V domains shown, Complete IgG1 made in HEK293 cells; also called C279; CLD389-C279) VH: EVQLVQSGGGVVQPGRSLRLSCAASGFTFSNYAMHWVRQAPGKGLEWVAVISYDGSNKYYADSVKGRFTISRDNSKNTLYLQMNSLRAEDTAVYYCARELRFFDWLLGRAFDIWGQGTMVTVSS VL: EIVMTQSPPSLSASVGDRVTITCRASQGIRNDLGWYQQKPGKAPKLLIYAASSLQSGVPSRFSGSGSGTDFTLTISSLQPEDFATYYCLQDYNYPWTFGQGTKLEIKR
Result: 40000

Q: State the recorded mean fluorescence intensity for this entry: CLDQ1-CA841-IgG1 (antibody, V domains shown, Complete IgG1 made in HEK293 cells) VH: QVQLVQSGAEVKKPGSSVKVSCKASGGTFSSYAISWVRQAPGQGLEWMGRIIPILGIANYAQKFQGRVTVTADKSTSTAYMELSSLRSEDTAVYYCARERDNWDPYYYYYGMDVWGQGTTVTVSS VL: DIQMTQSPSTLSASVGDRVTITCRASQSINSWLAWYQQKPGKAPKLLIYKASSLESGVPSRFSGSGSGTEFTLTISSLQPDDFATYYCQQYNSFPLTFGGGTKVEIKR
Result: 11100
